Ref: patent US20240116985A1

- PROCEDURE SUMMARY: Solubility in PBS
- Type: physicochemical
Label not satisfied if Solubility falls below 40 µM; label satisfied in every other case.

* CC(=O)N1CCC[C@]12CC=CCCCC1(CCCC=CCCCCCC[C@@](C)(C(=O)N[C@@H](Cc3ccccc3)C(=O)N[C@@H](Cc3csc4ccccc34)C(=O)N[C@@H](CCC(N)=O)C(N)=O)NC(=O)[C@H](CC(N)=O)NC(=O)[C@H](Cc3ccsc3)NC(=O)[C@H](C)NC(=O)[C@H](C)NC(=O)[C@H](CCC(=O)O)NC(=O)[C@H](CC(=O)O)NC1=O)NC(=O)[C@H](C)NC(=O)[C@H](CC(=O)O)NC2=O (stereo partly shown) [I-449] | not satisfied
* CC(=O)N1CCC[C@]12CC=CCCCC1(CCCC=CCCCOC(=O)N3CC[C@@](C(=O)N[C@@H](Cc4ccccc4)C(=O)N[C@@H](Cc4csc5ccccc45)C(=O)N[C@H](C(N)=O)[C@@H](C)O)(C3)NC(=O)[C@H](CC(C)C)NC(=O)[C@H](Cc3ccccc3)NC(=O)[C@H](C)NC(=O)[C@H](CCCCNC(C)C)NC(=O)[C@H]([C@@H](C)O)NC(=O)[C@H](CC(=O)O)NC1=O)NC(=O)[C@H](C)NC(=O)[C@H](CC(N)=O)NC2=O (stereo partly shown) | not satisfied
* CC[C@H](C)[C@@H]1NC(=O)[C@H](CC(=O)O)NC(=O)[C@]2(CC=CCCCC3(CCCC=CCCCCCC[C@@](C)(C(=O)N[C@@H](Cc4ccccc4OC)C(=O)N[C@@H](Cc4csc5ccccc45)C(=O)N[C@@H](Cc4c[nH]cn4)C(N)=O)NC(=O)[C@H](CC(N)=O)NC(=O)[C@H](Cc4ccccc4)NC(=O)[C@H](C)NC(=O)[C@H](C)NC(=O)[C@H](CC(=O)O)NC(=O)[C@H](CC(=O)O)NC3=O)NC1=O)CCCN2C(C)=O (stereo partly shown) | not satisfied
* CC[C@H](C)[C@H](NC(=O)[C@H](CC(=O)O)NC(=O)[C@H](C)NC(C)=O)C(=O)N[C@]1(C)CCN(C)C(=O)OCC=CCCCCC[C@@](C)(C(=O)N[C@@H](Cc2ccccc2)C(=O)N[C@@H](Cc2c[nH]c3ccccc23)C(=O)N[C@@H](Cc2c[nH]cn2)C(N)=O)NC(=O)[C@H](CCC(N)=O)NC(=O)[C@H](Cc2ccccc2)NC(=O)[C@H](C)NC(=O)[C@H](C)NC(=O)[C@H](CCC(=O)O)NC(=O)[C@H](CC(=O)O)NC1=O | satisfied
* CC[C@H](C)[C@@H]1NC(=O)[C@H](CC(=O)O)NC(=O)[C@]2(CC=CCCCC3(CCCC=CCCCCCC[C@@](C)(C(=O)N[C@@H](Cc4ccccc4)C(=O)N[C@@H](Cc4csc5ccccc45)C(=O)N[C@@H](CCC(N)=O)C(N)=O)NC(=O)[C@H](CCC(N)=O)NC(=O)[C@H](Cc4ccccc4)NC(=O)[C@H](C)NC(=O)[C@H](C)NC(=O)[C@H](CCCC(=O)O)NC(=O)[C@H](CC(=O)O)NC3=O)NC1=O)CCCN2C(C)=O (stereo partly shown) | satisfied
* CC(=O)N1CCC[C@]12CC=CCCCC1(CCCC=CCCCOC(=O)N3CC[C@@](C(=O)N[C@@H](Cc4ccccc4Cl)C(=O)N[C@@H](Cc4csc5ccccc45)C(=O)N[C@@H](CCC(N)=O)C(N)=O)(C3)NC(=O)[C@H](CC(C)C)NC(=O)[C@H](Cc3ccccc3)NC(=O)[C@H](C)NC(=O)[C@H](C)NC(=O)[C@H](CCC(=O)O)NC(=O)[C@H](CC(=O)O)NC1=O)NC(=O)[C@H](CC1CCCCC1)NC(=O)[C@H](CC(=O)O)NC2=O (stereo partly shown) [I-1078] | not satisfied
* CC(=O)N1CCC[C@]12CC=CCCCC1(CCCC=CCCCCCC[C@@](C)(C(=O)N[C@@H](Cc3ccccc3Cl)C(=O)N[C@@H](Cc3csc4ccccc34)C(=O)N[C@@H](CCC(N)=O)C(N)=O)NC(=O)[C@H]([C@@H](C)O)NC(=O)[C@H](Cc3ccccc3)NC(=O)[C@H](C)NC(=O)[C@H](C)NC(=O)[C@H](CC(=O)O)NC(=O)[C@H](CC(=O)O)NC1=O)NC(=O)[C@H](CC(C)(C)C)NC(=O)[C@H](CC(=O)O)NC2=O (stereo partly shown) | satisfied
* CC(=O)N1CCC[C@]12CC=CCCCC1(CCCC=CCCCOC(=O)N3CC[C@@](C(=O)N[C@@H](Cc4ccccc4)C(=O)N[C@@H](Cc4csc5ccccc45)C(=O)N[C@@H](CCCCN)C(N)=O)(C3)NC(=O)[C@H](CC(C)C)NC(=O)[C@H](Cc3ccccc3)NC(=O)[C@H](C)NC(=O)[C@H](CCCCNC(C)C)NC(=O)[C@H]([C@@H](C)O)NC(=O)[C@H](CC(=O)O)NC1=O)NC(=O)[C@H](C)NC(=O)[C@H](CC(N)=O)NC2=O (stereo partly shown) | not satisfied
* CC(=O)N1CCC[C@]12CC=CCCCC1(CCCC=CCCCCCC[C@@](C)(C(=O)N[C@@H](Cc3ccccc3)C(=O)N[C@@H](Cc3csc4ccccc34)C(=O)N[C@@H](CCC(N)=O)C(N)=O)NC(=O)[C@H](CCC(N)=O)NC(=O)[C@H](Cc3cccs3)NC(=O)[C@H](C)NC(=O)[C@H](C)NC(=O)[C@H](CCC(=O)O)NC(=O)[C@H](CC(=O)O)NC1=O)NC(=O)[C@H](C)NC(=O)[C@H](CC(=O)O)NC2=O (stereo partly shown) [I-486] | satisfied
* CC(=O)N1CCC[C@]12CC=CCCCC1(CCCC=CCCCOC(=O)N3CC[C@@](C(=O)N[C@@H](Cc4ccc5ccccc5c4)C(=O)N[C@@H](Cc4csc5ccccc45)C(=O)N[C@@H](Cc4c[nH]cn4)C(N)=O)(C3)NC(=O)[C@H](CC(N)=O)NC(=O)[C@H](Cc3ccccc3)NC(=O)[C@H](C)NC(=O)[C@H](C)NC(=O)[C@H](CC(=O)O)NC(=O)[C@H](CC(=O)O)NC1=O)NC(=O)[C@H](CC(C)(C)C)NC(=O)[C@H](CC(=O)O)NC2=O (stereo partly shown) | not satisfied
